# experimental_system: reuptake of dopamine (DA) in synaptosomes (Rattus norvegicus)
# Construct: in synaptosomes as described in WO 97/16451
# Sequence (P23977 whole entry): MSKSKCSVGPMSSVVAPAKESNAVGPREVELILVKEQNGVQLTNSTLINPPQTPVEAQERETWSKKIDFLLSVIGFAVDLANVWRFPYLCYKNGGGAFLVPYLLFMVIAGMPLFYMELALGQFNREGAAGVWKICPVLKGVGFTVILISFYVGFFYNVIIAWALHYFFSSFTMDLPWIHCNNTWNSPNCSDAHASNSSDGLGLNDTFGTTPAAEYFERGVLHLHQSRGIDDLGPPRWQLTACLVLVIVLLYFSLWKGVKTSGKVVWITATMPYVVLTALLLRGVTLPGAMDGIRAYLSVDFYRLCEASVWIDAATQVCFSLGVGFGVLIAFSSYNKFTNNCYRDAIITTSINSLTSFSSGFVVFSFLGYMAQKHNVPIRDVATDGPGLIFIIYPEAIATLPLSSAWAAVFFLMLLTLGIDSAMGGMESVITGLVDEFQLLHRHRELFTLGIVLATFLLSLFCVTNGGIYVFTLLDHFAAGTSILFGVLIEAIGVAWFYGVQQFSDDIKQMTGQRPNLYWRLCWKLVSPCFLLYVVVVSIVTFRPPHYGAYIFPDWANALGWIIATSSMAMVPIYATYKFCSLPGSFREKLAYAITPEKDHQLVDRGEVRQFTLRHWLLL
# test_method_notes: Inhibition of DA reuptake in synaptosomes
# setup_conditions: 3H-DA, read-out: DA-uptake IC50
observation_type: IC50 (nM)
Value expressed in nM; do not type the unit.

Observe how each entry below is paired with its result.
compound="O=c1oc2cc(OC3CC4CCC(C3)N4)ccc2cc1-c1cc2ccccc2o1 (stereo not drawn)" unit_of_measure=nM value_reported=700
compound="O=c1oc2cc(OC3CC4CCC(C3)N4)ccc2cc1-c1ccco1 (stereo not drawn)" unit_of_measure=nM value_reported=34

Here's the next entry for you.
Challenge: What does the data say about its IC50? Entry: O=c1oc2cc(OC3CC4CCC(C3)N4)ccc2cc1-c1ccoc1 (stereo not drawn)
Response given: 9.9

* * *

Quick reference: pIC50 of the listed items.
# experimental_system: reuptake of serotonine (5-HT) in synaptosomes (Rattus norvegicus)
# Construct: in synaptosomes as described in WO 97/16451
# Sequence (P31652 whole entry): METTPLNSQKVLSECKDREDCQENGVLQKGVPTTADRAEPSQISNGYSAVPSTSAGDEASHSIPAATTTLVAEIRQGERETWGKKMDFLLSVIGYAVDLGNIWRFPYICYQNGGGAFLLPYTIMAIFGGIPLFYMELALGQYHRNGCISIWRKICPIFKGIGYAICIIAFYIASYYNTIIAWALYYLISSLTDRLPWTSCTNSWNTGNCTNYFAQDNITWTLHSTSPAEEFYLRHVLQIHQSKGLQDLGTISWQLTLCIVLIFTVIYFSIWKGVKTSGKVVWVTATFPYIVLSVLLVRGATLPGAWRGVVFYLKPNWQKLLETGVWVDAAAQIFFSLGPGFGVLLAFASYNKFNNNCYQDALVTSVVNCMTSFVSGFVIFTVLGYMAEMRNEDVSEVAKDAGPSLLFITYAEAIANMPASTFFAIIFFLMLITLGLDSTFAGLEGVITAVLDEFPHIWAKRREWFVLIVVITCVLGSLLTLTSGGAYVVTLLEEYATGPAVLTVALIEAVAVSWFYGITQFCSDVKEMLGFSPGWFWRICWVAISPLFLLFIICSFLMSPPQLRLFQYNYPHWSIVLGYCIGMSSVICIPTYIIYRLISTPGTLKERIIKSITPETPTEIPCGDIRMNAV
# test_method_notes: Inhibition of 5-HT reuptake in synaptosomes
# setup_conditions: 3H-5-HT, read-out: 5-HT-uptake IC50
In simple prose, pIC50 is minus the logarithm base ten of a concentration in moles per litre.

molecule="O=c1oc2cc(OC3CC4CCC(C3)N4)ccc2cc1-c1ccoc1 (stereo not drawn)" value_reported=8.00
molecule="O=c1oc2cc(OC3CC4CCC(C3)N4)ccc2cc1-c1cc2ccccc2o1 (stereo not drawn)" value_reported=8.04

Field: next molecule
Challenge: Need pIC50, item O=c1oc2cc(OC3CC4CCC(C3)N4)ccc2cc1-c1ccco1 (stereo not drawn)
Response given: 8.11

* * *

# IC50 listing for each entry below
# experimental_system: reuptake of noradrenaline (NA) in synaptosomes (Rattus norvegicus)
# Construct: in synaptosomes as described in WO 97/16451
# Sequence (Q63380 1-617): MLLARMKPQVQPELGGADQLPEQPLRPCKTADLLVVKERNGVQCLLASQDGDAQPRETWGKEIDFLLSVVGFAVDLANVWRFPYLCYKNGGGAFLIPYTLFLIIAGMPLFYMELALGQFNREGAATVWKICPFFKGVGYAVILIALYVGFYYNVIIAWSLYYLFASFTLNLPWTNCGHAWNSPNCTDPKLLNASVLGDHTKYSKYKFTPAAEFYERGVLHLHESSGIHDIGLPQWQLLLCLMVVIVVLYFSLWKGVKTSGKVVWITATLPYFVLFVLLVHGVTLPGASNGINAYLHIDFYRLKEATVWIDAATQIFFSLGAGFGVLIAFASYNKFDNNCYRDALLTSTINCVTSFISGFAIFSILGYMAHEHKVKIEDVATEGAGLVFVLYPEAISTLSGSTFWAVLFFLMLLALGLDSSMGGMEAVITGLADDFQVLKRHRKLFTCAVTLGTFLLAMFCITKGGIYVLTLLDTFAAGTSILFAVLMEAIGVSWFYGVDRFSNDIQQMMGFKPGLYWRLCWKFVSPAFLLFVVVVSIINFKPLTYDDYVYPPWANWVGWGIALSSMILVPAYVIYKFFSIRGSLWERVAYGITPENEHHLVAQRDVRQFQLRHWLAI
# test_method_notes: Inhibition of NA reuptake in synaptosomes
# setup_conditions: 3H-NA, read-out: NA-uptake IC50
Your answer should be a plain number; it is taken to be in nM.

Some molecules with known IC50 results, for comparison:
molecule="O=c1oc2cc(OC3CC4CCC(C3)N4)ccc2cc1-c1ccoc1 (stereo not drawn)" observation_type=IC50 unit_of_measure=nM value_reported=0.48
molecule="O=c1oc2cc(OC3CC4CCC(C3)N4)ccc2cc1-c1ccco1 (stereo not drawn)" observation_type=IC50 unit_of_measure=nM value_reported=4.3

Query molecule follows.
Challenge: Find the measured IC50: item O=c1oc2cc(OC3CC4CCC(C3)N4)ccc2cc1-c1cc2ccccc2o1 (stereo not drawn) , target or system reuptake of noradrenaline (NA) in synaptosomes (Rattus norvegicus).
Response given: 840

Measured values drawn from patent US8263617B2 for this set.
